System name: Hb (Homo sapiens, UniProt P68871)
Construct: purchased Sigma-Aldrich H7379
Sequence (P68871 2-147 limits assumed): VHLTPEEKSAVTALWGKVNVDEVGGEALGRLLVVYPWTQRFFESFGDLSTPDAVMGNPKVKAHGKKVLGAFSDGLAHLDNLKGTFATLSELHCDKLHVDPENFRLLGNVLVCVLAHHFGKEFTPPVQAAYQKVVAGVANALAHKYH
Sequence (P69905 2-142 partner limits assumed): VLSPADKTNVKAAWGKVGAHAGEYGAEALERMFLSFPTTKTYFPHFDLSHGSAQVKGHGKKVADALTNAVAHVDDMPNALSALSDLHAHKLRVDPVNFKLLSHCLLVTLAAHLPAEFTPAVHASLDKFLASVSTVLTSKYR
Assay details: ROS-Glo H2O2 assay with Hb
Type: biochemical
Conditions: Tables S2, S3; read-out: HB-EC50
Assign pEC50 to each entry below.
One number for each entry, as −log10 of the molar value.

Compound | System name | Reported endpoint | Measured number
CNc1ccc(NCCc2ccc(C(F)(F)F)cc2)cc1.Cl [KDS12017] | Hb (Homo sapiens, UniProt P68871) | pEC50 | 7.06
CNc1ccc(NCCc2ccccc2OC)cc1.Cl [KDS12025] | Hb (Homo sapiens, UniProt P68871) | pEC50 | 7.35

[ask] // returns reported pEC50 for input Oc1ccc(NCCc2ccc(C(F)(F)F)cc2)cc1 [7c]
[reply] 5.29

====

Assign pEC50 to each entry below.
System name: HRP (Armoracia rusticana, UniProt P00433)
Sequence (P00433 31-353): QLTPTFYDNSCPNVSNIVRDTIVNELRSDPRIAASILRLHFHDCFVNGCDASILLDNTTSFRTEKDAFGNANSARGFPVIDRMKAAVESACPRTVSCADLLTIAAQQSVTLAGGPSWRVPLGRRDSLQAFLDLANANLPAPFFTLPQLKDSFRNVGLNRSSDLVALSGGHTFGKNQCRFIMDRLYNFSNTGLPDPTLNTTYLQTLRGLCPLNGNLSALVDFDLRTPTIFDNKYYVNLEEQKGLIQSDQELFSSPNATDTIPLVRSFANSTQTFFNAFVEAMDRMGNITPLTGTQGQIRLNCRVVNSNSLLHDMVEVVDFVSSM
Assay details: H2O2 assay with HRP (HRP-EC50)
Assay type: biochemical, horseradish
Conditions: Tables S2, S3; read-out: HRP-EC50
pEC50: −log10 of the molar value.

Study these solved cases before continuing.
Compound | System name | pEC50
O=C(O)c1ccccc1O [Salicylic Acid, reference compound] | HRP (Armoracia rusticana, UniProt P00433) | < 5.00
Cc1ccc(O)c(C(=O)O)c1 [p-Cresotic acid, reference compound] | HRP (Armoracia rusticana, UniProt P00433) | < 5.00

[ask] // returns reported pEC50 for input Oc1ccc(NCCc2ccc(C(F)(F)F)cc2)cc1 [7c]
[reply] < 5.00
